- assay system: HDAC2 (Homo sapiens, UniProt Q92769)
- Construct: purchased Reaction Biology Corporation (assay run by the CRO)
- Sequence (Q92769 whole entry): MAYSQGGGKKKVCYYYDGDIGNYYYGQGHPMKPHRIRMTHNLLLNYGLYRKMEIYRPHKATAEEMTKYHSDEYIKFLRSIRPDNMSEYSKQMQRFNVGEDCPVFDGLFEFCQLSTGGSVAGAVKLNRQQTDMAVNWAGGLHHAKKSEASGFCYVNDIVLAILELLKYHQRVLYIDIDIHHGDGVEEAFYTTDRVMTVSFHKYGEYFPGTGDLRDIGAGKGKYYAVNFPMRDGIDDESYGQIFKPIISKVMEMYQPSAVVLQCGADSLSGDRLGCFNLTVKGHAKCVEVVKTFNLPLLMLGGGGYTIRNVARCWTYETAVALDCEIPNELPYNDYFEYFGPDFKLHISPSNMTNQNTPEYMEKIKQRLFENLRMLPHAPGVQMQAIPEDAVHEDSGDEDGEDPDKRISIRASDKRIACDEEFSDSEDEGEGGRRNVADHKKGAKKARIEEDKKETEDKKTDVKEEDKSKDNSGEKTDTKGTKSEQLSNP
- protocol details: HDAC2 inhibition, full IC50 measurement (Reaction Biology; fluorogenic p53 peptide RHKK(Ac)AMC)
- Type: biochemical
- condition info: Conc. 4.57E-09 M, t2
Peptide text beside a SMILES is read from it.
readout name: HDAC2 activity raw data (signal)
// return just the number, without any unit appended

Below, 3 compounds whose answers are already recorded.
CCCC[C@H]1NC(=O)[C@H](Cc2ccccc2)NC(=O)[C@H](CCCCCS)NC(=O)[C@@H](CCCNC(=N)N)NC(=O)[C@H](CC(=O)O)NC(=O)[C@@H](CO)NC(=O)[C@@H](C)NC(=O)[C@H](CCCCN)NC1=O [des4.3.1, SHA-Phe-dNle-Lys-dAla-dSer-Asp-dArg] (HELM PEPTIDE1{D.[dR].[O=C([C@H](CCCCCS)N[*:1])[*:2]].F.[CCCC[C@@H](N[*:1])C(=O)[*:2]].K.[dA].[dS]}$PEPTIDE1,PEPTIDE1,1:R1-8:R2$$$V2.0) ... 1127910
NCCCC[C@@H]1NC(=O)[C@@H]2CCCN2C(=O)[C@H](CC(N)=O)NC(=O)[C@H](CCCCCS)NC(=O)CNC(=O)[C@H](Cc2c[nH]c3ccccc23)NC(=O)[C@@H](CCCCN)NC(=O)[C@H](CCC(N)=O)NC1=O [des1.1.0, SHA-Asn-Pro-Lys-Gln-dLys-Trp-Gly] (HELM PEPTIDE1{G.[O=C([C@H](CCCCCS)N[*:1])[*:2]].N.P.K.Q.[dK].W}$PEPTIDE1,PEPTIDE1,1:R1-8:R2$$$V2.0) ... 1048769
CC(C)[C@@H]1NC(=O)[C@H](CCCNC(=N)N)NC(=O)[C@@H](CC(=O)O)NC(=O)[C@H](CO)NC(=O)[C@@H](CO)NC(=O)[C@@H](CCC(=O)O)NC(=O)[C@H](Cc2ccc(O)cc2)NC(=O)[C@H](CCCCCS)NC1=O [des4.2.0, SHA-Tyr-dGlu-dSer-Ser-dAsp-Arg-Val] (HELM PEPTIDE1{R.V.[O=C([C@H](CCCCCS)N[*:1])[*:2]].Y.[dE].[dS].S.[dD]}$PEPTIDE1,PEPTIDE1,1:R1-8:R2$$$V2.0) ... 1646125

As a next step, examine the compound that follows.
Enquiry: State its HDAC2 activity raw data (signal) for this compound: CCCC[C@H]1NC(=O)[C@H](CC(=O)O)NC(=O)[C@@H](CO)NC(=O)[C@@H](C)NC(=O)[C@H](CCCCN)NC(=O)[C@@H](CCCCN)NC(=O)[C@H](Cc2ccccc2)NC(=O)[C@H](CCCCCS)NC1=O [des4.3.1.2, SHA-Phe-dLys-Lys-dAla-dSer-Asp-dNle] (HELM PEPTIDE1{D.[CCCC[C@@H](N[*:1])C(=O)[*:2]].[O=C([C@H](CCCCCS)N[*:1])[*:2]].F.[dK].K.[dA].[dS]}$PEPTIDE1,PEPTIDE1,1:R1-8:R2$$$V2.0)
Return: 1698186
